Biological target: IκB-α kinase
Experiment: IκB-α kinase assay (filter assay of affinity enriched IκB-α kinase from LPS-activated HUVEC lysate)
Assay type: biochemical, human
Details: Table 11, Enzyme Activity of Selected Compounds
In plain terms, low IC50, meaning strictly below 4 µM, gives 1.0, and everything else gives 0.0.

- given.smiles: "CC(C)n1cnc2c(Nc3ccc(Br)cc3)nc(N(CCO)CCO)nc21"
  category: 0.0
- given.smiles: "CC(C)n1cnc2c(NCc3ccc(-c4ccccn4)cc3)nc(N(CCO)CCO)nc21"
  category: 0.0
- given.smiles: "CC(C)n1cnc2c(Nc3cccc(-c4ccc(C#N)cc4)c3)nc(N(CCO)CCO)nc21"
  category: 1.0
- given.smiles: "CC(C)n1cnc2c(NCc3ccc(-c4ccccc4)cc3)nc(N(CCO)CCO)nc21"
  category: 1.0
- given.smiles: "CC(C)n1cnc2c(NCc3ccc(-c4ccccc4)cc3)nc(NCCO)nc21"
  category: 1.0
- given.smiles: "COc1cccc(-c2ccc(CNc3nc(N(CCO)CCO)nc4c3ncn4C(C)C)cc2)c1"
  category: 0.0
- given.smiles: "COc1ccc(-c2ccc(CNc3nc(N(CCO)CCO)nc4c3ncn4C(C)C)cc2)cc1"
  category: 0.0
- given.smiles: "CSc1ccc(Nc2nc(N(CCO)CCO)nc3c2ncn3C(C)C)cc1"
  category: 0.0

* * *

Entries and their IC50
Molecular target: CDK2 (Homo sapiens, UniProt P24941)
Test: biochemical
Settings: concentration required to inhibit CDK2 activity by 50%; 30 µM ATP, histone H1, 30°C for 30 min; read-out: IC50 (µg/mL) enzyme (converted)

- given.smiles: "COc1ccc(CNc2nc(Cl)nc3c2ncn3C(F)(F)F)cc1"
  uom: "µM"
  bound.sign: ">"
  IC50: 168
- given.smiles: "COC(=O)c1ccc(Cn2cnc3c(NCc4ccc(OC)cc4)nc(Cl)nc32)cc1"
  uom: "µM"
  bound.sign: ">"
  IC50: 137
- given.smiles: "COc1ccc(CNc2nc(Cl)nc3c2ncn3CC(C)C)cc1"
  uom: "µM"
  bound.sign: "="
  IC50: 173
- given.smiles: "Cn1cnc2c(OCc3ccc(Cl)cc3)nc(Cl)nc21"
  uom: "µM"
  bound.sign: "="
  IC50: 194
- given.smiles: "CC(C)n1cnc2c(NCc3ccc(C(F)(F)F)cc3)nc(N(CCO)CCO)nc21"
  uom: "µM"
  bound.sign: "="
  IC50: 1.28

* * *

Biological target: CDK2 (Homo sapiens, UniProt P24941)
Assay: biochemical
Conditions: concentration required to inhibit CDK2 activity by 50%; 30 µM ATP, histone H1, 30°C for 30 min; read-out: IC50 (µg/mL) enzyme (converted)

- molecule: "CC(C)n1cnc2c(NCc3ccc(S(N)(=O)=O)cc3)nc(NCCN)nc21"
  IC50: "22.2 µM"
- molecule: "CC(C)Cn1cnc2c(NCc3ccc(C(F)(F)F)cc3)nc(N(CCO)CCO)nc21"
  IC50: "130 µM"
- molecule: "COc1ccc(CNc2nc(Cl)nc3[nH]cnc23)cc1 [4-methoxybenzylamino; H; C1]"
  IC50: "207 µM"
- molecule: "Clc1ccc(COc2nc(Cl)nc3[nH]cnc23)cc1 [4-chlorobenzyloxy; H; C1]"
  IC50: "203 µM"
- molecule: "CC(C)n1cnc2c(NCc3ccc(Cl)cc3)nc(NCCNCCO)nc21"
  IC50: "5 µM"
